# ASSAY INFO: Pharmacokinetic evaluation in beagle dogs in vivo
# Parameters: species or system beagle dog
# MEASUREMENT SETUP: male, dog, plasma, PO 2 mg/kg, read-out: Area under drug-time curve AUC0-last PO
EXPERIMENTAL READOUT: AUC(0-t) (µM·h)
Give the value, in units of µM·h, as a plain number.

(Q) Please look up its AUC(0-t): `[2H]C([2H])([2H])N1CCC[C@@H](Nc2cc(C)c(-c3ccc4sccc4c3O)nn2)C1`
(A) 3.11

###

# ASSAY INFO: Pharmacokinetic evaluation in SD rats in vivo
# Parameters: species or system SD rat
# MEASUREMENT SETUP: male, rat, plasma, PO 10 mg/kg, read-out: Area under drug-time curve AUC0-last PO
EXPERIMENTAL READOUT: AUC(0-t) (µM·h)
Just the number please, in µM·h, no unit attached.

(Q) Looking for the measured AUC(0-t) of `[2H]C([2H])([2H])N1CCC[C@@H](Nc2cc(C)c(-c3ccc4sccc4c3O)nn2)C1` , can you help?
(A) 2.35
